tested on: Vero E6; test: drug sensitivity score (DSS) for viability; higher = more toxic; extreme values may be limits of the assay; details: 72 h
measuredProperty: drug sensitivity score
Lab note: record just the number, no unit beside it.

// known answers, use as guide
compound	systemName	observedValue
COC(=O)N[C@H](C(=O)N1CCC[C@H]1C(=O)Nc1ccc([C@@H]2CC[C@@H](c3ccc(NC(=O)[C@@H]4CCCN4C(=O)[C@@H](NC(=O)OC)C(C)C)cc3)N2c2ccc(C(C)(C)C)cc2)cc1)C(C)C [ombitasvir]	Vero E6	0
COc1ccc(C(=O)N2CCCc3cc(C4=NNC(=O)SC4C)ccc32)cc1OC (stereo not drawn)	Vero E6	3.5
CCN(CC)CCCC(C)Nc1c2ccc(Cl)cc2nc2ccc(OC)cc12 (stereo not drawn) [mepacrine]	Vero E6	7.2
CCNCCS(=O)(=O)NC[C@@]1(c2ccccc2)SC(NC(=O)C(C)(C)C)=NN1C(=O)C(C)(C)C [litronesib]	Vero E6	13.9
OC(CCN1CCCCC1)(c1ccccc1)C1CC2C=CC1C2 (stereo not drawn) [biperiden]	Vero E6	0
COc1cc2ncnc(Oc3cccc(NC(=O)Nc4cc(C(C)(C)C(F)(F)F)on4)c3)c2cc1OC	Vero E6	0

For CCN(c1cc(C#CCN2CCOCC2)cc(C(=O)NCc2c(C)cc(C)[nH]c2=O)c1C)[C@H]1CC[C@H](N(C)CCOC)CC1 , what is its reported drug sensitivity score?
0

For Nc1nc2c(c(N3CCNCC3)n1)CCC1=C2[C@@H]2CCCC[C@@H]2O1 , what is its reported drug sensitivity score?
0.1

* * *

The entries below are paired with their reported cell viability.
tested on: Caco-2; experiment: cell viability relative to DMSO; higher = less toxic; details: 72 h; 10000 nM
# value in %; strip the unit string

// known answers, use as guide
compound	observedValue
C=C[C@@]1(C)CC(=O)[C@]2(O)[C@@]3(C)[C@@H](O)CCC(C)(C)[C@@H]3[C@H](OC(=O)CCN(C)C)[C@H](OC(C)=O)[C@@]2(C)O1 [colforsin-daproate]	89.1
COc1cc2c(cc1OC)[C@@]13CCN4CC5=CCO[C@H]6CC(=O)N2[C@H]1[C@H]6[C@H]5C[C@H]43	91.7
CC1(C)S[C@@H]2[C@H](NC(=O)COc3ccccc3)C(=O)N2[C@H]1C(=O)O	90
CN1C2CCCC1CC(NC(=O)c1nn(C)c3ccccc13)C2 (stereo not drawn)	107
CN1[C@@H]2CC[C@H]1C[C@@H](OC(=O)N1Cc3ccccc3NC1=O)C2	92.7
Cc1cc(Nc2nc(N[C@@H](C)c3ccc(F)cc3)c(C#N)cc2F)n[nH]1	51.8

For CC(=O)c1c(O)cc(C)oc1=O [dehydroacetic-acid] , what is its reported cell viability?
94.9

For CC12CC3CC(C)(C1)CC(N)(C3)C2 [memantine] , what is its reported cell viability?
96.9

* * *

system: Caco-2; test: cell viability relative to DMSO; higher = less toxic; conditions: 72 h; 10 nM
The entries below are paired with their reported cell viability.
# value in %; strip the unit string

For Cc1ccc(O)c([C@H](CCN(C(C)C)C(C)C)c2ccccc2)c1 , what is its reported cell viability?
89.6

For C[C@@H](CN1CCC(Cc2ccccc2)CC1)[C@@H](O)c1ccc(O)cc1 , what is its reported cell viability?
92.3

For COc1ccc(CC2NCCc3cc(OC)c(OC)cc32)cc1OC (stereo unspecified) [tetrahydropapaverine] , what is its reported cell viability?
99

For CN[C@H](CC(C)C)C(=O)N[C@H]1C(=O)N[C@@H](CC(N)=O)C(=O)N[C@H]2C(=O)N[C@H]3C(=O)N[C@H](C(=O)N[C@H](C(=O)O)c4cc(O)cc(O)c4-c4cc3ccc4O)[C@H](O[C@H]3C[C@](C)(N)[C@@H](O)[C@H](C)O3)c3ccc(c(Cl)c3)Oc3cc2cc(c3O[C@@H]2O[C@H](CO)[C@@H](O)[C@H](O)[C@H]2O[C@H]2C[C@](C)(NCc3ccc(-c4ccc(Cl)cc4)cc3)[C@@H](O)[C@H](C)O2)Oc2ccc(cc2Cl)[C@H]1O , what is its reported cell viability?
97.7

For CN1CCC(=C2c3ccccc3CCc3sccc32)CC1 , what is its reported cell viability?
104

For CN1[C@@H]2CC[C@H]1C[C@@H](OC(=O)c1cc(Cl)cc(Cl)c1)C2 , what is its reported cell viability?
97.8

* * *

The entries below are paired with their reported cell viability.
system: HepG2; assay: cell viability relative to DMSO; higher = less toxic; conditions: 72 h; 10 nM
# value in %; strip the unit string

> print(dat)
                                   molecule  systemname  displayunit  observedvalue
1  CCC(=O)O[C@@H](O[P@@](=O)(CCCCc1ccccc1)CC(=O)N1C[C@H](C2CCCCC2)C[C@H]1C(=O)O)C(C)C [fosinopril]       HepG2            %           92.7

For CN(C)C(=O)N[C@H]1CC[C@H](CCN2CCN(c3cccc(Cl)c3Cl)CC2)CC1 [cariprazine] , what is its reported cell viability?
91.1

For CC(C)=CCC/C(C)=C/CC/C(C)=C/C=C/C(C)=C/C(=O)O [peretinoin] , what is its reported cell viability?
94.3

For CCCCCCc1ccc(O)cc1O.Nc1c2ccccc2nc2ccccc12 [acrisorcin] , what is its reported cell viability?
106

For O=C(O)/C=C/c1ccc(-c2ccc(O)c(C34CC5CC(CC(C5)C3)C4)c2)cc1 [adarotene] , what is its reported cell viability?
94.6

For CC(C)SC(=N)N [S-isopropylisothiourea] , what is its reported cell viability?
109

For COc1cc(/C=C2\CCCN([C@@H](C)c3ccc(F)cc3)C2=O)ccc1-n1cnc(C)c1 [E-2012] , what is its reported cell viability?
97.5

For Cc1noc(NS(=O)(=O)c2ccc(N)cc2)c1C [sulfafurazole] , what is its reported cell viability?
94.3

For O=C(O)P(=O)(O)O [foscarnet] , what is its reported cell viability?
105

For CC(=O)c1c(O)cc(C)oc1=O [dehydroacetic-acid] , what is its reported cell viability?
103

* * *

system: Caco-2; experiment: cell viability relative to DMSO; higher = less toxic; conditions: 72 h; 100 nM
measuredProperty: cell viability (%)
# value in %; strip the unit string

// known answers, use as guide
molecule	systemName	measuredProperty	displayUnit	observedValue
CCN(c1nc(N)c(C(=O)NC(=N)N)nc1Cl)C(C)C	Caco-2	cell viability	%	101
COc1ccc(CC2NCCc3cc(OC)c(OC)cc32)cc1OC (configuration not stated) [tetrahydropapaverine]	Caco-2	cell viability	%	99.5
NCCCNCCSP(=O)(O)O	Caco-2	cell viability	%	86.4

For CCCC[C@@]1(C2CCCC2)Cc2cc(OCCCC(=O)O)c(Cl)c(Cl)c2C1=O , what is its reported cell viability?
103

For COc1ccc(Nc2ncnc3ccc(OC)cc23)cc1 , what is its reported cell viability?
101

For CN(C)Cc1c(C(=O)NCCOc2ccc(C(=O)NO)cc2)oc2ccccc12 , what is its reported cell viability?
89.2

For CCOC(=O)Nc1cc(-c2ccc(C)c(NS(C)(=O)=O)c2)nn2c(C)nnc12 , what is its reported cell viability?
104

For Cc1csc2c(N[C@@H](C)CN3CCN(S(=O)(=O)c4ccc(Cl)c(Cl)c4)CC3)ncnc12 , what is its reported cell viability?
95.3

For COc1cc(F)c(C(C)C)cc1-c1ccc(C(F)(F)F)cc1CN1C(=O)O[C@H](c2cc(C(F)(F)F)cc(C(F)(F)F)c2)[C@@H]1C , what is its reported cell viability?
100

For CC1CCN(CCCC(=O)c2ccc(F)cc2)CC1 , what is its reported cell viability?
98.3

For Cc1ccccc1CN1C(=O)C2=C(CCN(Cc3ccccc3)C2)N2CCN=C12 , what is its reported cell viability?
93.4

* * *

tested on: Vero E6; assay: cell viability relative to DMSO; higher = less toxic; conditions: 72 h; 10000 nM
measuredProperty: cell viability (%)
# value in %; strip the unit string

// known answers, use as guide
> print(dat)
                                   molecule  measuredproperty  displayunit  observedvalue
1  Cc1cnc(Nc2ccc(OCCN3CCCC3)cc2)nc1Nc1cccc(S(=O)(=O)NC(C)(C)C)c1    cell viability            %            0.3
2  CCCC[C@@]1(C2CCCC2)Cc2cc(OCCCC(=O)O)c(Cl)c(Cl)c2C1=O    cell viability            %            101
3  COc1ccc(CNC(=O)c2cc(-c3cncc(C)c3)ncc2-c2nccs2)nc1OC    cell viability            %           92.7
4  CNCC(O)c1ccc(OC(=O)C(C)(C)C)c(OC(=O)C(C)(C)C)c1 (stereo not given)    cell viability            %           97.4

Attention now shifts to the item below.
For CN1C2CCCC1CC(NC(=O)c1nn(C)c3ccccc13)C2 (stereo not given) , what is its reported cell viability?
96.2
